Each entry below carries its recorded normalized growth.
- assayRemarks: chemical genetic growth profiling, strain panel (AID 1159580);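 further: tested at 20 µM; growth read once vehicle control cultures reached saturation at 30 °C; 1 = growth at the plate median or of vehicle wells; lower values mean less growth of the strain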
- conditionSummary: S. cerevisiae deletion strains, growth OD, locus YEL061C, strain CIN8 (second series), active compounds read low
The whole screen tested about 5,500 compounds, of which about 2,000 (36%) were called active. Not shown: some 18% with an inconclusive outcome. This is one part of the list.
Field format: numeric only.

Consider the reported normalized growth for these compounds:
compound=O=C(O)CCC(=O)c1ccc(-c2ccccc2)cc1 experimentalreadout="normalized growth" reading=0.978
compound=COc1ccc(-c2cc(C(F)F)nn2-c2ccc(S(N)(=O)=O)cc2)cc1F experimentalreadout="normalized growth" reading=1.01
compound=CC[C@]12CCCN3CCc4c(n(c5ccccc45)[C@](O)(C(=O)OC)C1)[C@@H]32 experimentalreadout="normalized growth" reading=0.986
compound=CCn1cc(C(=O)O)c(=O)c2ccc(C)nc21 experimentalreadout="normalized growth" reading=0.935
compound="CC(Cc1ccc(O)c(O)c1)(NN)C(=O)O (stereo not drawn)" experimentalreadout="normalized growth" reading=0.999

What does the record list as normalized growth for c1ccc2[nH]c(-c3cscn3)nc2c1 ?
1

Item under review: CCOC(=O)C(C)(N)Cc1ccc(O)c(O)c1 (stereo not drawn) . Reported normalized growth?
0.988

Given the entry CCOC(=O)c1ccc(N)cc1 , report its measured normalized growth.
1.04

* * *

Listing: normalized growth of selected compounds
- assayRemarks: chemical genetic growth profiling, strain panel (AID 1159580)
- conditionSummary: S. cerevisiae deletion strains, growth OD, locus YDR137W, strain rgp1, active compounds read low
Hit rate of the full screen: of about 5,500 compounds, about 2,000 (36%) were called active. Not shown: some 18% with an inconclusive outcome. The list shows a part of the results.
Reply briefly: the number, and no unit.

compound=O=C(O)c1ccc2c(c1)OCO2 reading=1.01
compound=c1ccc2[nH]c(-c3cscn3)nc2c1 reading=0.91
compound=CCOC(=O)c1ccc(N)cc1 reading=1.01

Entry Nc1nccs1 has what normalized growth?
0.998

Please look up its normalized growth: NC(=O)c1cc[n+](CC2=C(C(=O)O)N3C(=O)C(NC(=O)C(c4ccccc4)S(=O)(=O)[O-])C3SC2)cc1 (stereo not drawn)
1.02

What measured normalized growth goes with O=C(/C=C/c1ccc(O)c(O)c1)O[C@@H]1C[C@](O)(C(=O)O)C[C@@H](O)[C@H]1O ?
0.98

Entry CC[C@@H](C(=O)[C@@H](C)[C@@H](O)[C@H](C)[C@@H]1O[C@@H]([C@@H](CC)C(=O)O)CC[C@@H]1C)[C@H]1OC2(C=C[C@@H](O)[C@]3(CC[C@@](C)([C@H]4CC[C@](O)(CC)[C@H](C)O4)O3)O2)[C@H](C)C[C@@H]1C (stereo partly drawn) : reported normalized growth = ?
0.974

Form field: reported normalized growth of Nc1nc(N)c2nc(CNc3ccc(C(=O)NC(CCC(=O)O)C(=O)O)cc3)cnc2n1 (stereo not drawn)
0.985

* * *

// normalized growth lookup, one value per entry
- assayRemarks: chemical genetic growth profiling, strain panel (AID 1159580)
- conditionSummary: S. cerevisiae deletion strains, growth OD, locus YGL173C, strain kem1, active compounds read low
The campaign covered roughly 5,500 compounds. About 2,000 (36%) were called active. Roughly 18% stayed inconclusive and do not appear here. This is one part of the list.
Reply: number alone, nothing else.

# annotated cases, reported normalized growth shown
molecule=C[C@H](COc1ccccc1)N[C@H](C)[C@H](O)c1ccc(O)cc1 reading=1
molecule="C#C[C@]1(O)CCC2C3CCc4cc(OC)ccc4C3CC[C@@]21C (stereo not given in full)" reading=0.98
molecule="CC[C@]1(O)CC2CN(CCc3c([nH]c4ccccc34)[C@@](C(=O)OC)(c3cc4c(cc3OC)N(C=O)[C@H]3[C@@](O)(C(=O)OC)[C@H](OC(C)=O)[C@]5(CC)C=CCN6CC[C@]43[C@@H]65)C2)C1 (stereo not given in full)" reading=0.996
molecule="CC(COc1ccccc1)N(CCCl)Cc1ccccc1 (stereo not given)" reading=1.01

Now turn to the next molecule.
Quick check: normalized growth of OC1CCCCC1N1CCC(c2ccccc2)CC1 (stereo not given) ?
0.994

* * *

- assayRemarks: chemical genetic growth profiling, strain panel (AID 1159580)
- conditionSummary: S. cerevisiae deletion strains, growth OD, locus YER133W, strain GLC7
About 2,000 (36%) of roughly 5,500 compounds were called active. Not shown: some 18% with an inconclusive outcome. No stated cut-off is given here; in the data, active means normalized growth mostly below about 0.91 (no sharp cut-off); inconclusive means no clear call, values can overlap the other calls; inactive means mostly above about 0.92. The list shows a part of the results.
Form entry, call: pick from active, inactive

structureassmiles=CN(C)/C=C/C(=O)c1ccc(C#Cc2ccccc2)cc1 group=inactive
structureassmiles=O=C(Nc1cccc(C(F)(F)F)c1)Oc1ccc(F)cc1Cl group=inactive

Field: next compound
State the result this test recorded for Nc1cc(-c2ccc(OC(F)(F)F)cc2)nn1-c1ccc(Cl)c(Cl)c1 .
active

* * *

- assayRemarks: chemical genetic growth profiling, strain panel (AID 1159580);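 further: tested at 20 µM; growth read once vehicle control cultures reached saturation at 30 °C; 1 = growth at the plate median or of vehicle wells; lower values mean less growth of the strain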
- conditionSummary: S. cerevisiae deletion strains, growth OD, locus YOR083W, strain WHI5 (second series), active compounds read low
In all, about 5,500 compounds went through this assay and about 2,000 (36%) were called active. Roughly 18% stayed inconclusive and do not appear here. The list shows a part of the results.
experimentalReadout: normalized growth

The examples below pair each entry with its known result.
molecule="NCCCC(N)(C(=O)O)C(F)F (centres undefined)" experimentalreadout="normalized growth" reading="1.01 (inactive)"
molecule=Cc1cn([C@H]2C[C@@H](N=[N+]=[N-])[C@@H](CO)O2)c(=O)[nH]c1=O experimentalreadout="normalized growth" reading="1.02 (inactive)"
molecule=CC1=C(/C=C/C(C)=C/C=C/C(C)=C/C(=O)O)C(C)(C)CCC1 experimentalreadout="normalized growth" reading="1.02 (inactive)"
molecule="CN(C)CCCO[C@@H]1[C@H]2OC(C)(C)O[C@H]2O[C@@H]1C(O)CO (some centres undefined)" experimentalreadout="normalized growth" reading="1.01 (inactive)"
molecule=CCCn1c(=O)c2[nH]c(-c3ccc(S(=O)(=O)O)cc3)nc2n(CCC)c1=O experimentalreadout="normalized growth" reading="0.979 (inactive)"

Which normalized growth value is on record for Brc1c(NC2=NCCN2)ccc2nccnc12 ?
1 (inactive)

Quick one: normalized growth of COC(=O)C(C)(N)Cc1ccc(O)cc1 (centres undefined) ?
1.01 (inactive)

What normalized growth value was documented for this molecule, CC(N)=NCCCC[C@@H](N)C(=O)O ?
1.01 (inactive)

# input molecule: O=c1cc(O)cc(/C=C/c2ccc(O)c(O)c2)o1 ; wanted: its normalized growth
0.975 (inactive)

Entry C[C@@](Cc1ccc(O)c(O)c1)(NN)C(=O)O : reported normalized growth = ?
0.978 (inactive)

* * *

- assayRemarks: chemical genetic growth profiling, strain panel (AID 1159580);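 further: tested at 20 µM; growth read once vehicle control cultures reached saturation at 30 °C; 1 = growth at the plate median or of vehicle wells; lower values mean less growth of the strain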
- conditionSummary: S. cerevisiae deletion strains, growth OD, locus YNL209W, strain ssb2, active compounds read low
In all, about 5,500 compounds went through this assay and about 2,000 (36%) were called active. About 18% were inconclusive and are not listed. This is one part of the list.
Listed here are compounds together with their documented normalized growth.
Hey, just send me the number, nothing else.

// known answers, use as guide
compound=COP(=S)(OC)Oc1ccc(SC)c(C)c1 experimentalreadout="normalized growth" reading=1.01
compound="O=C(O)CCCCC1SCC2NC(=O)NC21 (stereo unspecified)" experimentalreadout="normalized growth" reading=0.995
compound="CCCNC(C)C(=O)Nc1ccccc1C (stereo unspecified)" experimentalreadout="normalized growth" reading=1
compound=COc1ccc(/C=C/C(=O)O)cc1OC experimentalreadout="normalized growth" reading=1.01
compound=NCCCCN=C(N)N experimentalreadout="normalized growth" reading=1.02

Recorded normalized growth of CCN(CC)CCOC(=O)C(Cc1cccc2ccccc12)CC1CCCO1 (stereo unspecified) , please.
1.02

Give its normalized growth value. Item: CC1=C(/C=C/C(C)=C/C=C/C(C)=C/CO)C(C)(C)CCC1
1.02

What value of measured normalized growth is listed for COc1cc(/C=C/C(=O)O)cc(OC)c1OC ?
0.996

I have this compound here, O=C(O)P(=O)(O)O , and I need its recorded normalized growth.
0.983

Tell me the measured normalized growth of O=C(O)c1cc(=O)c2c(OCC(O)COc3cccc4oc(C(=O)O)cc(=O)c34)cccc2o1 , please.
1.01

Name the recorded normalized growth for CCOC(=O)CCCCCCCCCCCCC1C=CCC1 (stereo unspecified) .
0.982

* * *

- assayRemarks: chemical genetic growth profiling, strain panel (AID 1159580);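 further: tested at 20 µM; growth read once vehicle control cultures reached saturation at 30 °C; 1 = growth at the plate median or of vehicle wells; lower values mean less growth of the strain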
- conditionSummary: S. cerevisiae deletion strains, growth OD, locus YPL055C, strain LGE1, active compounds read low
The campaign covered roughly 5,500 compounds. About 2,000 (36%) were called active. Not shown: some 18% with an inconclusive outcome. The list shows a part of the results.
experimentalReadout: normalized growth
Give only the figure.

Examples with answers:
compound="CC1=CC(=O)CC(C)(C)C1(O)/C=C/C(C)=C\\C(=O)O (stereo not drawn)" experimentalreadout="normalized growth" reading=0.979
compound="CC12C(=O)OC(=O)C1(C)C1CCC2O1 (stereo not drawn)" experimentalreadout="normalized growth" reading=1.05
compound="Nc1c(Br)cc(Br)cc1CNC1CCC(O)CC1 (stereo not drawn)" experimentalreadout="normalized growth" reading=0.978
compound=C[C@@]12C(=O)OC(=O)[C@]1(C)C1CCC2O1 experimentalreadout="normalized growth" reading=0.601
compound=COc1ccccc1NC(=O)N1CCCN(C(=O)c2cccs2)CC1 experimentalreadout="normalized growth" reading=1.01
compound=CC(C)(O)C#Cc1ccc(/C=N\O)cc1 experimentalreadout="normalized growth" reading=0.936

Please look up its normalized growth: CCOC(=O)c1cc(-c2ccc(N)cc2)oc1C
0.749

Bench note: what normalized growth did CC(=O)O[C@H]1CC[C@@]2(C)C(=CCC3C2CC[C@]2(C)C(=O)CCC32)C1 (stereo partly drawn) show?
0.594

Hey, just so you know, these numbers are from PubChem BioAssay AID1159580.
